target: T1, Clostridium difficile toxin A (Clostridioides difficile …, UniProt P16154); assay: SPR; details: both partners purified
T1 construct: also called TcdA
Listed here are binders together with their documented Kd.

Use the examples below as a reference point.
# binder, Kd
data = [
    ("A26.8 VHH T54W (VHH, source: E. coli TG1, periplasmic extract, purified (IMAC, SEC)) VHH: QVKLEESGGGLVQAGGSLRLSCAASERTFSRYPVAWFRQAPGAEREFVAVISSWGTSTYYADSVKGRFTISRDNAKVTVYLQMNNLKREDTAVYFCAVNSQRTRLQDPNEYDYWGQGTQVTVSS", "35 nM"),
    ("A26.8 VHH N109R (VHH, source: E. coli TG1, periplasmic extract, purified (IMAC, SEC)) VHH: QVKLEESGGGLVQAGGSLRLSCAASERTFSRYPVAWFRQAPGAEREFVAVISSTGTSTYYADSVKGRFTISRDNAKVTVYLQMNNLKREDTAVYFCAVNSQRTRLQDPREYDYWGQGTQVTVSS", "13.9 nM"),
    ("A26.8 VHH T56R, Q101K, T103M (VHH, source: E. coli TG1, periplasmic extract, purified (IMAC, SEC)) VHH: QVKLEESGGGLVQAGGSLRLSCAASERTFSRYPVAWFRQAPGAEREFVAVISSTGRSTYYADSVKGRFTISRDNAKVTVYLQMNNLKREDTAVYFCAVNSKRMRLQDPNEYDYWGQGTQVTVSS", "2.9 nM"),
]

Continue with the next binder.
Task: Quick one: Kd for A26.8 VHH S53R (VHH, source: E. coli TG1, periplasmic extract, purified (IMAC, SEC)) VHH: QVKLEESGGGLVQAGGSLRLSCAASERTFSRYPVAWFRQAPGAEREFVAVISRTGTSTYYADSVKGRFTISRDNAKVTVYLQMNNLKREDTAVYFCAVNSQRTRLQDPNEYDYWGQGTQVTVSS ?
Output: 224 nM
